Answer each item with its documented cell viability.
- System: Caco-2
- Measurement Description: cell viability relative to DMSO; higher = less toxic
- Condition Context: 72 h; 10 nM

Reported cell viability for C[C@H]1[C@H](C)CC[C@]2(C(=O)O)CC[C@]3(C)C(=CC[C@@H]4[C@@]5(C)C[C@@H](O)[C@H](O)[C@@](C)(CO)[C@@H]5CC[C@]43C)[C@H]12 was 104%

Reported cell viability for COCC(=O)O[C@]1(CCN(C)CCCc2nc3ccccc3[nH]2)CCc2cc(F)ccc2[C@@H]1C(C)C was 90.3%

Reported cell viability for O=C(CSc1nc2c(c(=O)n1-c1ccccc1)SCC2)Nc1ccc(-c2ccccc2)cn1 was 102%

Reported cell viability for Fc1cc(-c2cccc3ncc(-c4cnn(C5CCNCC5)c4)nc23)cc(F)c1CN1CCOCC1 was 98.8%

Reported cell viability for CC1=C(C(=O)O)N2C(=O)[C@@H](NC(=O)[C@H](N)c3ccccc3)[C@H]2SC1 was 94.6%

Reported cell viability for CC(C)(C)NCC(O)c1cc(Br)no1 (stereo unspecified) was 99.2%

Reported cell viability for C[C@@H](Oc1ccc2[nH]nc(/C=C/c3cnn(CCO)c3)c2c1)c1c(Cl)cncc1Cl was 99.5%

Reported cell viability for CCCC(CCC)C(=O)NCC(N)=O [valrocemide] was 94.1%

Reported cell viability for CCCN(CCC)C(=O)C1=Cc2ccc(-c3ccc(C(=O)N4CCCC4)cc3)cc2N=C(N)C1 was 106%

Reported cell viability for CN1C(=O)N(c2cc(Cl)cc(Cl)c2)C(=O)[C@@]1(C)Cc1ccc(Br)cc1 was 98%

Reported cell viability for CC(C)(C)NC(=O)[C@@H]1C[C@@H]2CCCC[C@@H]2CN1C[C@@H](O)[C@H](Cc1ccccc1)NC(=O)[C@H](CC(N)=O)NC(=O)c1ccc2ccccc2n1 was 87.9%

Reported cell viability for CC1=NN(c2ccc(C(=O)O)cc2)C(=O)C1=Cc1ccc(-c2cc(C)c(C)cc2[N+](=O)[O-])o1 was 90.5%

Reported cell viability for COc1cc(Cc2cnc(N)nc2N)c(C(C)C)cc1OC was 90.5%

Reported cell viability for Brc1ccc(NC2C3CC4CC(C3)CC2C4)cc1 (stereo unspecified) was 95.9%

Reported cell viability for COc1ccc(-c2cc(C(F)F)nn2-c2ccc(S(N)(=O)=O)cc2)cc1F was 93.5%

Reported cell viability for COc1cc(NC(=O)c2cccc(-n3cc(NC(=O)Nc4cccc(C)c4)cn3)c2)cc(OC)c1OC was 105%

* * *

- Test system: HepG2
- Measurement Description: relative viability EC50 (midpoint between 100% and the lowest measured viability); higher = less toxic
- Condition Context: 72 h
Reported Property: relative viability EC50

Form field relative viability EC50 for item O=C(O)c1ccc(N2N=C(Cc3ccccc3)/C(=C\c3ccc(-c4ccccc4F)o3)C2=O)cc1 on HepG2: > 10 µM

Form field relative viability EC50 for item CCCCC#Cc1nc(NC)c2ncn([C@@H]3O[C@H](CO)[C@@H](O)[C@H]3O)c2n1 on HepG2: > 10 µM

Form field relative viability EC50 for item CCCCc1nc(-c2ccc(OCCCN(CC)CC)cc2)cn1-c1ccc(Oc2ccc(Cl)cc2)cc1 on HepG2: 2.69 µM

Form field relative viability EC50 for item S=C(NCCc1ccccn1)Nc1ccc(Br)cn1 on HepG2: > 10 µM

Form field relative viability EC50 for item Cc1csc(NC(=O)CSc2ccc(-c3ccccc3)nn2)n1 on HepG2: > 10 µM

* * *

- Test system: Caco-2
- Measurement Description: relative viability EC50 (midpoint between 100% and the lowest measured viability); higher = less toxic
- Condition Context: 72 h
Counter-ions that a name gives are not always drawn.
Reported Property: relative viability EC50

Reported relative viability EC50 for COc1cc2c(cc1OC)[C@H](C)NCC2 [Isoquinoline,-6,7-dimethoxy-1-methyl-1,2,3,4-tetrahydro,] was > 10 µM

Reported relative viability EC50 for CC[C@H]1OC(=O)C[C@@H](O)[C@H](C)[C@@H](O[C@@H]2O[C@H](C)[C@@H](O[C@H]3C[C@@](C)(O)[C@@H](O)[C@H](C)O3)[C@H](N(C)C)[C@H]2O)[C@@H](CC=O)C[C@@H](C)C(=O)/C=C/C(C)=C/[C@@H]1CO[C@@H]1O[C@H](C)[C@@H](O)[C@@H](OC)[C@H]1OC [TYLOSIN TARTRATE] was 1.03 µM

Reported relative viability EC50 for CC(=O)O[C@@H]1C[C@H]2C(C)(C)C(=O)C=C[C@]2(C)[C@H]2CC[C@@]3(C)[C@H](c4ccoc4)OC(=O)[C@H]4O[C@]43[C@@]21C [gedunin] was > 10 µM

Reported relative viability EC50 for COc1cc(Cc2cnc(N)nc2N)c(C(C)C)cc1OC [Ro-3] was > 10 µM

Reported relative viability EC50 for Cc1ccc(NCCCc2ccccc2)c(N)c1 [NFKB-activation-inhibitor-II] was > 10 µM

Reported relative viability EC50 for CC(C)CCNc1ncccc1C(=O)N1CCN(Cc2ccccc2)CC1 [NSI-189] was > 10 µM

* * *

- System: Caco-2
- Measurement Description: drug sensitivity score (DSS) for viability; higher = more toxic; extreme values may be limits of the assay
- Condition Context: 72 h
Reported Property: drug sensitivity score
Could you respond with only the numeric value?

Reported drug sensitivity score for CC(C)c1cc(-c2n[nH]c(=O)n2-c2ccc3c(ccn3C)c2)c(O)cc1O [ganetespib] was 21.3

Reported drug sensitivity score for CCNC(=O)[C@@H]1CCCN1C(=O)[C@H](CCCNC(=N)N)NC(=O)[C@H](CC(C)C)NC(=O)[C@@H](CC(C)C)NC(=O)[C@H](Cc1ccc(O)cc1)NC(=O)[C@H](CO)NC(=O)[C@H](Cc1c[nH]c2ccccc12)NC(=O)[C@H](Cc1c[nH]cn1)NC(=O)[C@@H]1CCC(=O)N1 [leuprolide] was 0.7

Reported drug sensitivity score for COc1cc2c(cc1OC)[C@H](C)NCC2 [Isoquinoline,-6,7-dimethoxy-1-methyl-1,2,3,4-tetrahydro,] was 0

Reported drug sensitivity score for COc1ccc(C2=N[C@@H](c3ccc(Cl)cc3)[C@@H](c3ccc(Cl)cc3)N2C(=O)N2CCNC(=O)C2)c(OC(C)C)c1 [nutlin-3] was 0

Reported drug sensitivity score for Cc1cccc(-c2nn3c(c2-c2ccnc4ccc(C(N)=O)cc24)CCC3)n1 was 0

Reported drug sensitivity score for O=C(O)CCC/C=C\C[C@@H]1[C@@H](/C=C/[C@@H](O)COc2cccc(Cl)c2)[C@H](O)C[C@@H]1O (racemic) [cloprostenol-(+/-)] was 0

* * *

- Tested on: A549-ACE2
- Measurement Description: drug-induced phospholipidosis relative to tamoxifen; higher = more phospholipidosis
- Condition Context: 10 µM; 72 h
Parameter threshold = 3%. Response is Y when drug-induced phospholipidosis meets or exceeds it, else N.

Does drug-induced phospholipidosis meet or surpass 3% for N#CC[C@@H](C1CCCC1)n1cc(-c2ncnc3[nH]ccc23)cn1 [ruxolitinib-(S)] ?
N

Does drug-induced phospholipidosis meet or surpass 3% for CC(C)(Cc1ccc2ccccc2c1)NC[C@@H](O)COc1cccc(Cl)c1C#N ?
Y

Does drug-induced phospholipidosis meet or surpass 3% for CN1CC2c3ccccc3Oc3ccc(Cl)cc3C2C1 (stereo not given) ?
Y

Does drug-induced phospholipidosis meet or surpass 3% for O=C1C=C2C=C[C@@H]3C[C@@]2(O1)[C@H]1CCCCN31 ?
N

Does drug-induced phospholipidosis meet or surpass 3% for COCC(=O)O[C@]1(CCN(C)CCCc2nc3ccccc3[nH]2)CCc2cc(F)ccc2[C@@H]1C(C)C ?
Y

* * *

- Test system: Caco-2
- Measurement Description: drug sensitivity score (DSS) for viability; higher = more toxic; extreme values may be limits of the assay
- Condition Context: 72 h
Parameter threshold = 0.3. Response is true (1) when drug sensitivity score meets or exceeds it, else false (0).

Does drug sensitivity score meet or surpass 0.3 for CC(C)NCC(O)COc1cccc2[nH]c3ccccc3c12 (stereo not drawn) ?
false (0)

Does drug sensitivity score meet or surpass 0.3 for Nc1nccc(/C=C/c2ccccc2)n1 ?
true (1)

Does drug sensitivity score meet or surpass 0.3 for Nc1ncnc2c1ncn2C1CCCO1 (stereo not drawn) ?
false (0)

Does drug sensitivity score meet or surpass 0.3 for CC(C)(C)C#Cc1cc(N(C(=O)[C@H]2CC[C@H](C)CC2)[C@H]2CC[C@@H](O)CC2)c(C(=O)O)s1 ?
false (0)

Does drug sensitivity score meet or surpass 0.3 for CC(C)(C)NC(=O)[C@@H]1C[C@@H]2CCCC[C@@H]2CN1C[C@@H](O)[C@H](Cc1ccccc1)NC(=O)[C@H](CC(N)=O)NC(=O)c1ccc2ccccc2n1 ?
true (1)

Does drug sensitivity score meet or surpass 0.3 for Nc1c2c(nc3c1CCC3)CCCC2 ?
false (0)

Does drug sensitivity score meet or surpass 0.3 for CC(=O)O[C@@H]1C[C@H]2C(C)(C)C(=O)C=C[C@]2(C)[C@H]2CC[C@@]3(C)[C@H](c4ccoc4)OC(=O)[C@H]4O[C@]43[C@@]21C ?
false (0)
